MEASUREMENT_DESCRIPTION: Selectivity index, ratio of IC50 for human HepG2 cells to IC50 for CQ-resistant, MFQ-susceptible Plasmodium falciparum W2 clone Indochina 1 isolate
Format: toxicity, cell-based
CONDITION_PARAMETERS: read-out: Ratio IC50
Decision: selectivity ratio >= 100 yields yes, all other cases yield no.

>  <STRUCTURE_AS_SMILES>
CC(=O)O[C@H]1C[C@H]2[C@@H]([C@H](OC(C)=O)C[C@@H]3C[C@H](N(C)C)CC[C@@]32C)[C@@H]2CC[C@H]([C@H](C)CCCN(C)CCNc3ccnc4cc(Cl)ccc34)[C@@]12C

>  <GROUP>
yes

$$$$
>  <STRUCTURE_AS_SMILES>
CC(=O)O[C@H]1C[C@H]2[C@@H]([C@H](OC(C)=O)C[C@@H]3C[C@H](N)CC[C@@]32C)[C@@H]2CC[C@H]([C@H](C)CCCNCCNc3ccnc4cc(Cl)ccc34)[C@@]12C

>  <GROUP>
no

$$$$
>  <STRUCTURE_AS_SMILES>
CC(=O)O[C@@H]1CC[C@@]2(C)[C@@H](C1)C[C@@H](OC(C)=O)[C@@H]1[C@@H]2C[C@H](OC(C)=O)[C@]2(C)[C@@H]([C@H](C)CCCNCCCCNc3ccnc4cc(Cl)ccc34)CC[C@@H]12

>  <GROUP>
yes

$$$$
>  <STRUCTURE_AS_SMILES>
CC(=O)N[C@@H]1CC[C@@]2(C)[C@@H](C1)C[C@@H](OC(C)=O)[C@@H]1[C@@H]2C[C@H](OC(C)=O)[C@]2(C)[C@@H]([C@H](C)CCCNCCNc3ccnc4cc(Cl)ccc34)CC[C@@H]12

>  <GROUP>
yes

$$$$
>  <STRUCTURE_AS_SMILES>
CC(=O)O[C@H]1C[C@H]2[C@@H]([C@H](OC(C)=O)C[C@@H]3C[C@H](O)CC[C@@]32C)[C@@H]2CC[C@H]([C@H](C)CCCNCCCCNc3ccnc4cc(Cl)ccc34)[C@@]12C

>  <GROUP>
no

$$$$
>  <STRUCTURE_AS_SMILES>
CC(=O)O[C@H]1C[C@H]2[C@@H]([C@H](OC(C)=O)C[C@@H]3C[C@H](NC(=O)OC(C)(C)C)CC[C@@]32C)[C@@H]2CC[C@H]([C@H](C)CCCN(C)CCNc3ccnc4cc(Cl)ccc34)[C@@]12C

>  <GROUP>
yes

$$$$
>  <STRUCTURE_AS_SMILES>
CC(=O)O[C@@H]1CC[C@@]2(C)[C@@H](C1)C[C@@H](OC(C)=O)[C@@H]1[C@@H]2C[C@H](OC(C)=O)[C@]2(C)[C@@H]([C@H](C)CCCN(C)CCCNc3ccnc4cc(Cl)ccc34)CC[C@@H]12

>  <GROUP>
yes

$$$$
>  <STRUCTURE_AS_SMILES>
CC(=O)O[C@H]1C[C@H]2[C@@H]([C@H](OC(C)=O)C[C@@H]3C[C@H](O)CC[C@@]32C)[C@@H]2CC[C@H]([C@H](C)CCCNCCCNc3ccnc4cc(Cl)ccc34)[C@@]12C

>  <GROUP>
no

$$$$

Okay, next one:
Has "CC(=O)O[C@H]1C[C@H]2[C@@H]([C@H](OC(C)=O)C[C@@H]3C[C@H](O)CC[C@@]32C)[C@@H]2CC[C@H]([C@H](C)CCCNCCNc3ccnc4cc(Cl)ccc34)[C@@]12C" a recorded selectivity ratio greater than or equal to 100?
yes

FYI, the data here is from ChEMBL document CHEMBL3259704.
